system: HT29 colon; assay: NCI-60 one-dose screen, 48 h (100 = growth as untreated, 0 = no growth, -100 = all killed); conditions: 10 µM unless noted
This is part of a sample that, as a whole, favours compounds with a hit. Of some 83,000 tested, about 20% had one in any assay.

Molecule	Measure Unit	growth
Clc1ccc2[nH]cc(-c3cncn3CCc3ccccc3)c2c1	%	57.3
Cc1cc(=O)[nH]c(/C(=N/Nc2ccccc2)C(=O)c2ccc(Cl)cc2)n1	%	105
C[C@H]1O[C@@H](O[C@H]2[C@@H](O)C[C@H](O[C@H]3[C@@H](O)C[C@H](O[C@H]4CC[C@]5(C)C6C[C@@H](O)[C@]7(C)[C@@H](C8=CC(=O)OC8)CC[C@]7(O)C6CC[C@@H]5C4)O[C@@H]3C)O[C@@H]2C)C[C@H](O)[C@@H]1O (stereo partly specified)	%	-84.5
NS(=O)(=O)c1cc(C2(O)NC(=O)c3ccccc32)ccc1Cl (stereo unspecified)	%	98.4
Cn1c(=O)c2[nH]c(=S)n(Cc3ccccc3)c2n(C)c1=O	%	111
O=C(Nc1ccccc1)P(=O)(O)c1ccccc1	%	114
CC(NC(N)=S)c1ccccc1 (stereo unspecified)	%	110
O=c1ccn(C2CC=C(CO)O2)c(=O)[nH]1 (stereo unspecified)	%	111
COc1cccc(-c2nc(-c3ccc(N)cc3)co2)c1	%	87.2
N[C@H](CS)C(=O)O	%	95.9
COc1cccc(C2=NN(C(C)=O)C(c3cc(OC)c(OC)c(OC)c3)C2)c1 (stereo unspecified)	%	8.66
COc1ccc(C(=O)COc2cccc(/C=C3\CSc4ccc(Cl)cc4C3=O)c2)cc1	%	72.2
CC(=O)Nc1ccc(C(=O)COc2cccc(/C=C3\CCc4ccccc4C3=O)c2)cc1	%	101
N/C(=N\c1nc2ccccc2s1)NC(=O)Nc1ccccc1Cl	%	5.03
Cc1cc(Cl)ccc1Nc1nc(C(F)(F)F)ccc1C(=O)N/N=C/c1ccc(Cl)cc1	%	3.44
CC(C)=CCCC(C)c1ccc(C)c2c1OCN(CC1CCNCC1)C2 (stereo unspecified)	%	-68.5
O=C(CN1CCN(c2ccc(Cl)cc2)CC1)N1CCN(c2nnc(-c3ccccc3)c(-c3ccccc3)n2)CC1	%	29.2
O=C1/C(=C\c2coc3ccccc3c2=O)c2ccccc2N1c1c(Cl)cccc1Cl	%	47.6
COCCCNS(=O)(=O)c1ncnc2nc[nH]c12	%	125
O=c1[nH]cc(Nc2cc(Cl)c3nonc3c2[N+](=O)[O-])c(=O)[nH]1	%	132
c1ccc2nc(Cn3c[n+](Cc4ccc5ccccc5n4)c4ccccc43)ccc2c1	%	15.5

Source listed as PubChem BioAssay (NCI).
